method_description: Aqueous solubility of the compound incubated for 18 hrs at pH 7.4 by UV spectrum based analysis
Assay type: physicochemical
# maps each entry to its solubility at 18 h

{"columns": ["compound", "reading_unit", "solubility at 18 h"],
 "data": [
  ["O=C1CCC(N2C(=O)c3ccc(NS(=O)(=O)c4ccccc4)cc3C2=O)C(=O)N1 (stereo not given)", "µM", 71],
  ["O=C1CCC(N2Cc3cc(CNC(=O)C(F)(F)c4ccc(Cl)cc4)ccc3C2=O)C(=O)N1 (stereo not given)", "µM", 77],
  ["O=C1CCC(N2C(=O)c3ccc(NS(=O)(=O)c4ccccc4OC(F)(F)F)cc3C2=O)C(=O)N1 (stereo not given)", "µM", 67],
  ["Cc1ccccc1S(=O)(=O)Nc1ccc2c(c1)C(=O)N(C1CCC(=O)NC1=O)C2=O (stereo not given)", "µM", 84],
  ["O=C1CCC(N2C(=O)c3ccc(NS(=O)(=O)c4ccccc4C(F)(F)F)cc3C2=O)C(=O)N1 (stereo not given)", "µM", 66],
  ["Cc1c(Cl)cccc1S(=O)(=O)Nc1ccc2c(c1)C(=O)N(C1CCC(=O)NC1=O)C2=O (stereo not given)", "µM", 64],
  ["O=C1CCC(N2C(=O)c3ccc(NS(=O)(=O)c4cccc(Cl)c4)cc3C2=O)C(=O)N1 (stereo not given)", "µM", 74],
  ["O=C1CCC(N2C(=O)c3ccc(NS(=O)(=O)c4cccc(OC(F)(F)F)c4)cc3C2=O)C(=O)N1 (stereo not given)", "µM", 64],
  ["COc1ccccc1S(=O)(=O)Nc1ccc2c(c1)C(=O)N(C1CCC(=O)NC1=O)C2=O (stereo not given)", "µM", 85],
  ["O=C1CCC(N2C(=O)c3ccc(NS(=O)(=O)c4ccc(OC(F)(F)F)cc4)cc3C2=O)C(=O)N1 (stereo not given)", "µM", 76]
]}

---

method_description: Apparent permeability of the compound in dog MDCKII-MDR1 cells measured after 1 hr
Assay type: ADME, cell-based, Canis lupus familiaris
condition_parameters: mdck-mdr1, 1 h
Listed below: Papp values for each entry.
readout_label: Papp (×10⁻⁶ cm/s)

{"columns": ["compound", "readout_label", "data_value"],
 "data": [
  ["O=C1CCC(N2C(=O)c3ccc(NS(=O)(=O)c4ccccc4C(F)(F)F)cc3C2=O)C(=O)N1 (stereo unspecified)", "Papp", 1.4],
  ["O=C1CCC(N2C(=O)c3ccc(NS(=O)(=O)c4ccc(OC(F)(F)F)cc4)cc3C2=O)C(=O)N1 (stereo unspecified)", "Papp", 1.1],
  ["Cc1ccccc1S(=O)(=O)Nc1ccc2c(c1)C(=O)N(C1CCC(=O)NC1=O)C2=O (stereo unspecified)", "Papp", 6.8],
  ["O=C1CCC(N2C(=O)c3ccc(NS(=O)(=O)c4cccc(OC(F)(F)F)c4)cc3C2=O)C(=O)N1 (stereo unspecified)", "Papp", 4],
  ["O=C1CCC(N2C(=O)c3ccc(NS(=O)(=O)c4cccc(Cl)c4)cc3C2=O)C(=O)N1 (stereo unspecified)", "Papp", 1.7],
  ["Cc1c(Cl)cccc1S(=O)(=O)Nc1ccc2c(c1)C(=O)N(C1CCC(=O)NC1=O)C2=O (stereo unspecified)", "Papp", 3.6],
  ["Cc1ccc(S(=O)(=O)Nc2ccc3c(c2)C(=O)N(C2CCC(=O)NC2=O)C3=O)cc1Cl (stereo unspecified)", "Papp", 4.6],
  ["O=C1CCC(N2C(=O)c3ccc(NS(=O)(=O)c4ccccc4OC(F)(F)F)cc3C2=O)C(=O)N1 (stereo unspecified)", "Papp", 2.3],
  ["O=C1CCC(N2Cc3cc(CNC(=O)C(F)(F)c4ccc(Cl)cc4)ccc3C2=O)C(=O)N1 (stereo unspecified)", "Papp", 4.9],
  ["COc1ccccc1S(=O)(=O)Nc1ccc2c(c1)C(=O)N(C1CCC(=O)NC1=O)C2=O (stereo unspecified)", "Papp", 0.6],
  ["O=C1CCC(N2C(=O)c3ccc(NS(=O)(=O)c4ccccc4)cc3C2=O)C(=O)N1 (stereo unspecified)", "Papp", 3.6]
]}

---

Reported pEC50 values are given for each entry in this list.
target_entity: Protein cereblon/Eukaryotic peptide chain release factor GTP-binding subunit ERF3A (Homo sapiens, UniProt P15170+Q96SW2)
Sequence (Q96SW2 whole entry, the tested form may be a part): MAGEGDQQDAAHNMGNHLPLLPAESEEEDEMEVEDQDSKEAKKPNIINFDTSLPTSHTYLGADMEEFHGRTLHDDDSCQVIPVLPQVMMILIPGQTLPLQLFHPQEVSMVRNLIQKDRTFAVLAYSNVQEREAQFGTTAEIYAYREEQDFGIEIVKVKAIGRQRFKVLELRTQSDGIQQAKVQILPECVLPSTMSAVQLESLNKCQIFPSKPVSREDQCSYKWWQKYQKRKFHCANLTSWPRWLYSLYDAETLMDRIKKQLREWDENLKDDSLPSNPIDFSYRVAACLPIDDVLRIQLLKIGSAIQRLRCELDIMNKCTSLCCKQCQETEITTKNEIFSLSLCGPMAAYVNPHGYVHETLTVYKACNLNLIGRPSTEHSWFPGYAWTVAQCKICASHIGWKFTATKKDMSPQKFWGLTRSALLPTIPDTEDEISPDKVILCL
Sequence (P15170 whole entry, the tested form may be a part): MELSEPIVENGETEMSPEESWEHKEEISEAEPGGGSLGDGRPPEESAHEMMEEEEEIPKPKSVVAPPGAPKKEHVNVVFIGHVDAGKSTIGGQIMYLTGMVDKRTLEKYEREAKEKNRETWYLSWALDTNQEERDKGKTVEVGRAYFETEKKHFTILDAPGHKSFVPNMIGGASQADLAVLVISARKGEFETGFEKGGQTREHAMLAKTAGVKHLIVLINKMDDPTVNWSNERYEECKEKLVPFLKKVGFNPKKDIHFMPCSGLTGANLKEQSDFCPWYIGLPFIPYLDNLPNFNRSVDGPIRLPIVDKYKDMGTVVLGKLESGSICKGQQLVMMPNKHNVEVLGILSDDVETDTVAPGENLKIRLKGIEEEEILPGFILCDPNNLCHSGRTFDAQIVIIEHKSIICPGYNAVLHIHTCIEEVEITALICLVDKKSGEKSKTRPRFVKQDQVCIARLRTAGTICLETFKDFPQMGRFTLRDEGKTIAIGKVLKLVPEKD
method_description: PROTAC activity at human CRBN/HiBiT-fused GSPT1 transfected in HEK293T cells assessed as induction of GSPT1 degradation measured after 4 hrs by Nano-Glo HiBiT lytic assay
pEC50: −log10 of the molar value.

{"columns": ["compound", "qualifying_sign", "pEC50"],
 "data": [
  ["Cc1ccccc1S(=O)(=O)Nc1ccc2c(c1)C(=O)N(C1CCC(=O)NC1=O)C2=O (stereo not given)", "=", 5.03],
  ["O=C1CCC(N2C(=O)c3ccc(NS(=O)(=O)c4cccc(Cl)c4)cc3C2=O)C(=O)N1 (stereo not given)", "<", 5.00],
  ["O=C1CCC(N2C(=O)c3ccc(NS(=O)(=O)c4ccccc4C(F)(F)F)cc3C2=O)C(=O)N1 (stereo not given)", "=", 7.28],
  ["Cc1ccc(S(=O)(=O)Nc2ccc3c(c2)C(=O)N(C2CCC(=O)NC2=O)C3=O)cc1Cl (stereo not given)", "<", 5.00],
  ["O=C1CCC(N2C(=O)c3ccc(NS(=O)(=O)c4ccccc4)cc3C2=O)C(=O)N1 (stereo not given)", "<", 5.00]
]}

---

Entries and their pEC50 values follow.
target_entity: Protein cereblon/Eukaryotic peptide chain release factor GTP-binding subunit ERF3A (Homo sapiens, UniProt P15170+Q96SW2)
method_description: PROTAC activity at human CRBN/HiBiT-fused GSPT1 transfected in HEK293T cells assessed as induction of GSPT1 degradation measured after 4 hrs by Nano-Glo HiBiT lytic assay
pEC50: −log10 of the molar value.
readout_label: pEC50

{"columns": ["compound", "readout_label", "data_value"],
 "data": [
  ["O=C1CCC(N2C(=O)c3ccc(NS(=O)(=O)c4cccc(OC(F)(F)F)c4)cc3C2=O)C(=O)N1 (stereo not drawn)", "pEC50", "< 5.00"],
  ["O=C1CCC(N2C(=O)c3ccc(NS(=O)(=O)c4ccc(OC(F)(F)F)cc4)cc3C2=O)C(=O)N1 (stereo not drawn)", "pEC50", "< 5.00"],
  ["COc1ccccc1S(=O)(=O)Nc1ccc2c(c1)C(=O)N(C1CCC(=O)NC1=O)C2=O (stereo not drawn)", "pEC50", "< 5.00"]
]}
